test system: K-562 leukemia; experiment: NCI-60 one-dose screen, 48 h; conditions: 10 µM unless noted
About 83,000 compounds went through this panel and 20% of them were active in at least one assay; those are over-represented in the sample as a whole. Active and inactive are the calls of the source. Rule for the calls: active = growth percent below 10; inactive = the rest.
Pick one and only one: label 1 = active, label 0 = inactive

Task item: Lab log entry: C#C[C@]1(O)CC[C@H]2[C@@H]3CC=C4c5sc(Nc6ccccc6)nc5CC[C@]4(C)[C@H]3CC[C@@]21C — outcome as called in the assay?
Reply: label 1

Task item: State the result this test recorded for COc1ccc(-c2cnc3ccccc3n2)cc1 .
Reply: label 0

Task item: Could you check what this test reported for CC1(C)C2CC1C1(/C=N\Nc3ccccc3)C(C2)C(C#N)(C#N)C1(C#N)C#N (centres undefined) ?
Reply: label 0

Task item: Per the records of this test, what outcome belongs to O=C(Nc1ccc(Br)cc1F)c1cc(Br)ccc1O ?
Reply: label 0

Task item: Recorded test outcome, item Brc1c[n+](Cc2ccc3ccccc3c2)cn1Cc1ccc2ccccc2c1
Reply: label 0

Task item: Hey, what did the test say about CCCCNc1nc(NN2C(=O)c3cccc4cccc(c34)C2=O)nc(-n2cnc3ccccc32)n1 ?
Reply: label 0

Task item: Outcome? O=C(CSc1nc2ccccc2[nH]1)Nc1cccc(Cl)c1
Reply: label 0

Task item: // outcome(item) with item = COc1cc(/C=C/c2ccccc2)cc(OC)c1
Reply: label 0

Task item: What is the recorded call for this compound in the test? CC(=O)OC[C@H]1OC(Sc2sc(C(=O)c3ccc(C)cc3)c(N)c2-c2nc3ccccc3s2)[C@H](OC(C)=O)[C@@H](OC(C)=O)[C@@H]1OC(C)=O (some centres undefined)
Reply: label 0

Task item: For N#CC1=C(N)Oc2c(sc3c(Br)cccc23)C1c1ccc([N+](=O)[O-])cc1 (centres undefined) , which call appears in the assay record?
Reply: label 1

Task item: Each compound tested received a call. Report the one for CCCCCCNC(=O)Oc1ccc(/C(=C(\C)c2ccc(OC)cc2)c2ccc(OCCN3CCCCC3)cc2)cc1 .
Reply: label 1

Task item: Hey, what did the test say about COc1c(C2CC(=O)Nc3c2c(C)nn3-c2nc3ccccc3[nH]2)cc2c(c1OC)OCO2 (centres undefined) ?
Reply: label 0

Task item: What did the test return for NCCCNc1nc2ccccc2c2c(=O)c3cc(C(F)(F)F)ccc3sc12 ?
Reply: label 1

Task item: // return assay outcome for CC1=C([Se]CC(OC(=O)[C@@H](CSSC(C)(C)C)NC(=O)OC(C)(C)C)C(=O)NC(C)(C)C)C(=O)c2ccccc2C1=O (some centres undefined)
Reply: label 0

Task item: I would be grateful if you could indicate the recorded call for O=c1c2cc(F)ccc2sc2c(N3CCNCC3)nc3ccc(F)cc3c12 .
Reply: label 1

Task item: Entry O=c1c2cccc(Cl)c2sc2c(NCCCNCCO)nc3ccccc3c12 : call = ?
Reply: label 1

Task item: // outcome(item) with item = CNc1nc2c(s1)C(c1cc(F)ccc1F)CC(=O)N2 (centres undefined)
Reply: label 0

Task item: Would you mind telling me which call this test gave N#Cc1c(-c2ccc(Cl)cc2)nc(NCCO)[nH]c1=O ?
Reply: label 0

Task item: Which outcome was assigned to O=S(=O)(NCCCNc1cc(-c2c(-c3cccc(O)c3)nc3sccn23)ccn1)c1cccc2ccccc12 in this test?
Reply: label 0

Task item: # fetch the recorded call for COc1ccc(/C=N/Nc2cc(=O)[nH]c3ccc(Cl)cc23)cc1 here
Reply: label 0

Task item: Record request — test call for C#Cc1cccc(NC(=O)c2ccc(NC(=O)C=C)cc2)c1
Reply: label 0

Task item: Tell me the assay call for O=C1CN(CCN2CC(=O)N(Cc3ccccc3)C(=O)C2)CC(=O)N1Cc1ccccc1 please.
Reply: label 0

Task item: Write down the call the test reported for this compound. Item: COc1ccc(S(=O)(=O)n2c3ccccc3n3ncc(-c4nnc(C)o4)c23)cc1
Reply: label 0

Task item: Identify the outcome logged in this assay for the compound shown: CNC(=O)c1[nH]cc(-c2ccccc2)c1-c1cc(OC)c2c(c1OC)OCO2
Reply: label 0

Task item: Hi, sorry to bother you, what did the test record for COc1ccc2c(c1)nc(NNC(=O)c1cnccn1)c1cccn12 ?
Reply: label 0

Task item: Please indicate how the test categorized Clc1ccc(C(/C=C/c2sc(Cl)nc2Cl)=N/Nc2cc(Cl)cc(Cl)c2)cc1 .
Reply: label 0

Task item: Each compound tested received a call. Report the one for Cc1[nH]c(C(=O)Nc2ccc(C(=O)NCCN)cc2OC(C)C)c(Cl)c1Cl .
Reply: label 1

Task item: Hi, do you know how Cc1cccc(OCC(O)CN2CCN(c3ccc(Cl)cc3)CC2)c1 (centres undefined) came out in this test?
Reply: label 0

Task item: Called result for C[C@]12CC[C@@H]3c4cc(OC(F)F)c(OS(N)(=O)=O)cc4CC[C@H]3[C@@H]1CC[C@@H]2OS(N)(=O)=O
Reply: label 0

Task item: Short answer needed: outcome of this test for O=C(CSc1nccc(Nc2ccc(S(=O)(=O)Nc3nccs3)cc2)n1)c1ccc(C(F)(F)F)cc1 ?
Reply: label 0

Task item: Kindly provide the recorded test outcome for the following compound: COc1ccc2c(c1)c(-c1nn3cc(-c4cccs4)nc3s1)cn2C
Reply: label 0

Task item: Just curious, what result did N#CC1=C(N)Oc2c(sc3c(Br)cccc23)C1c1ccc(Br)cc1 (centres undefined) get here?
Reply: label 1

Task item: Returns: the outcome recorded for C=C1CC[C@@]2(C#N)[C@H]3[C@H](CC[C@@H]2C)[C@@H](C)C[C@@H](CC(C)(C)C#N)[C@H]13 in this assay.
Reply: label 1

Task item: Hello, I am checking results. What call was entered for COc1ccc(-c2[nH]c3ccc(OC)cc3c2/C=C(\C#N)S(=O)(=O)c2ccccc2)cc1 ?
Reply: label 0

Task item: Record request — test call for COc1ccc(N2C(=O)C(Oc3ccccc3)C2c2ccc(C)cc2)cc1 (centres undefined)
Reply: label 0

Task item: Write down the call the test reported for this compound. Item: O=C(CCOCCNC(=O)COc1ccc2c(c1)OCC(c1ccc(F)cc1)C2=O)NCCCC(O)(P(=O)(O)O)P(=O)(O)O (centres undefined)
Reply: label 0

Task item: Given [O-][n+]1c2ccccc2[n+]([O-])c2c3ccccc3[nH]c21 , state the outcome it received in this test.
Reply: label 0

Task item: Recorded call for COC(=O)C(Cc1ccccc1)NC(=O)NC(=O)NC(=O)CI (centres undefined) ?
Reply: label 1

Task item: What call does the record list for C/C(=C(/c1ccccc1)c1ccc(N2C(=O)c3cccc4c(N5CCN(C)CC5)ccc(c34)C2=O)cc1)c1ccccc1 ?
Reply: label 1

Source of measurements: PubChem BioAssay (NCI)
